species: Rattus norvegicus; assay: DrugMatrix - Regimen: Daily Repeat; type: toxicity, organism-based, Sprague-Dawley; parameters: regimen Daily Repeat, gender Male, age 6-8 weeks; conditions: in vivo, po, 0 mg/kg, 72 h, tissue Plasma, route oral GAVAGE, dose level Control, time 3 day, vehicle .5 % CMC
REPORTED_PROPERTY: GLUCOSE (mg/dL)
Report only the number, with the unit mg/dL understood.

MOLECULE	GLUCOSE / mg/dL
CN1CCC[C@@H]1CCO[C@](C)(c1ccccc1)c1ccc(Cl)cc1	171.5
C=C1CC[C@H](O)C/C1=C/C=C1\CCC[C@]2(C)[C@@H]([C@H](C)/C=C/[C@H](C)C(C)C)CC[C@@H]12	137
Cc1c(-c2ccccc2)oc2c(C(=O)OCCN3CCCCC3)cccc2c1=O [FLAVOXATE]	160.67
CC(/C=C1\SC(=S)N(CC(=O)O)C1=O)=C\c1ccccc1	171.5
COc1c(C)c2c(c(O)c1C/C=C(\C)CCC(=O)OCCN1CCOCC1)C(=O)OC2 [MYCOPHENOLATE MOFETIL]	171.5

// GLUCOSE lookup, key: C[C@]12CCC(=O)C=C1CC[C@@H]1[C@@H]2C(=O)C[C@@]2(C)[C@H]1CC[C@]2(O)C(=O)CO
182.67

Any idea what its GLUCOSE is? The molecule is CCc1ccc(C(=O)C(C)CN2CCCCC2)cc1 (centres undefined)
168.83

# input molecule: Brc1ccccc1 ; wanted: its GLUCOSE
158

Requested field: GLUCOSE. Item: CN1C(C(=O)Nc2ccccn2)=C(O)c2ccccc2S1(=O)=O
173.17

* * *

species on record: Rattus norvegicus; assay: DrugMatrix - Regimen: Daily Repeat; format: toxicity, organism-based, Sprague-Dawley; design: regimen Daily Repeat, gender Male, age 6-8 weeks; conditions: in vivo, po, 1500 mg/kg, 120 h, tissue Blood, route oral GAVAGE, dose level High, time 5 day, vehicle .5 % CMC
Recorded HEMOGLOBIN by entry
// unit must come after the numeric part

Some molecules with known HEMOGLOBIN results, for comparison:
MOLECULE	REPORTED_PROPERTY	VALUE
NS(=O)(=O)c1cc2c(cc1Cl)NCNS2(=O)=O [HYDROCHLOROTHIAZIDE]	HEMOGLOBIN	13.63 G/DL
COC(=O)c1ccc(O)cc1	HEMOGLOBIN	14.27 G/DL
CCOC(=O)[C@H](CCc1ccccc1)N[C@@H](C)C(=O)N1[C@H](C(=O)O)C[C@@H]2CCC[C@@H]21	HEMOGLOBIN	14.07 G/DL

Quick check: HEMOGLOBIN of O=C1CCc2cc(OCCCCc3nnnn3C3CCCCC3)ccc2N1 ?
13.87 G/DL

* * *

Here the recorded ABSOLUTE SEGMENTED NEUTROPHIL is given for each entry.
species on record: Rattus norvegicus; test: DrugMatrix - Regimen: Daily Repeat; format: toxicity, organism-based, Sprague-Dawley; set-up: regimen Daily Repeat, gender Male, age 6-8 weeks; conditions: in vivo, po, 0 mg/kg, 72 h, tissue Blood, route oral GAVAGE, dose level Control, time 3 day, […]
Value expressed in CELLS/uL; do not type the unit.

COMPOUND	REPORTED_PROPERTY	VALUE_UNIT	VALUE
COC1=CC(=O)C[C@@H](C)[C@]12Oc1c(Cl)c(OC)cc(OC)c1C2=O	ABSOLUTE SEGMENTED NEUTROPHIL	CELLS/uL	1748.33
CC(=O)[C@H]1CC[C@H]2[C@@H]3CCC4=CC(=O)CC[C@]4(C)[C@H]3CC[C@]12C	ABSOLUTE SEGMENTED NEUTROPHIL	CELLS/uL	906
CSc1ccc2c(c1)N(CCC1CCCCN1C)c1ccccc1S2 (centres undefined)	ABSOLUTE SEGMENTED NEUTROPHIL	CELLS/uL	1051.33
CC1=C(/C=C/C(C)=C/C=C/C(C)=C\C(=O)O)C(C)(C)CCC1	ABSOLUTE SEGMENTED NEUTROPHIL	CELLS/uL	896.67
CCCCCCCCCc1ccc(O)cc1	ABSOLUTE SEGMENTED NEUTROPHIL	CELLS/uL	1186.67
c1ccc2[nH]c(-c3cscn3)nc2c1	ABSOLUTE SEGMENTED NEUTROPHIL	CELLS/uL	516.83
Cn1cnc([N+](=O)[O-])c1Sc1ncnc2nc[nH]c12	ABSOLUTE SEGMENTED NEUTROPHIL	CELLS/uL	744.67
COc1ccc2c(c1)c(CC(=O)OCC(=O)O)c(C)n2C(=O)c1ccc(Cl)cc1	ABSOLUTE SEGMENTED NEUTROPHIL	CELLS/uL	1608.5

# ---- query compound ----
Endpoint output: ABSOLUTE SEGMENTED NEUTROPHIL of CC(C)n1c(/C=C/C(O)CC(O)CC(=O)O)c(-c2ccc(F)cc2)c2ccccc21 (centres undefined) . Value?
1521.67

* * *

This listing pairs compounds with measured CARBON DIOXIDE.
species on record: Rattus norvegicus; experiment: DrugMatrix - Regimen: Daily Repeat; assay type: toxicity, organism-based, Sprague-Dawley; design: regimen Daily Repeat, gender Male, age 6-8 weeks; conditions: in vivo, po, 0 mg/kg, 120 h, tissue Plasma, route oral GAVAGE, dose level Control, time 5 day, vehicle .5 % CMC
Use mmol/L as the unit, but write only the number.

In the examples that follow, each entry is paired with its recorded CARBON DIOXIDE.
COMPOUND	VALUE_UNIT	VALUE
O=c1[nH]cc(F)c(=O)[nH]1	mmol/L	24.67
COC(=O)c1ccc(O)cc1	mmol/L	30.17
CC(/C=C1\SC(=S)N(CC(=O)O)C1=O)=C\c1ccccc1	mmol/L	28.33

Which measured CARBON DIOXIDE value corresponds to CCOC(=O)OC(C)OC1=C(C(=O)Nc2ccccn2)N(C)S(=O)(=O)c2ccccc21 (centres undefined) ?
27.67

Which CARBON DIOXIDE reading was recorded for the compound CCC[C@@H]1C[C@@H](C(=O)N[C@@H]([C@H]2O[C@H](SC)[C@H](O)[C@@H](O)[C@H]2O)[C@@H](C)O)N(C)C1 ?
30.33

Recorded CARBON DIOXIDE of CCc1ccc(C(=O)C(C)CN2CCCCC2)cc1 (centres undefined) , please.
28.67

Reported CARBON DIOXIDE for Cc1c(-c2ccccc2)oc2c(C(=O)OCCN3CCCCC3)cccc2c1=O [FLAVOXATE] : what is it?
27.17

Query: CARBON DIOXIDE; subject: CC(C)[C@H](N)C(=O)OCCOCn1cnc2c(=O)[nH]c(N)nc21
27.67

Would you kindly share the measured CARBON DIOXIDE for COc1c(C)c2c(c(O)c1C/C=C(\C)CCC(=O)OCCN1CCOCC1)C(=O)OC2 [MYCOPHENOLATE MOFETIL] ?
28.33

* * *

species on record: Rattus norvegicus; assay: DrugMatrix - Regimen: Daily Repeat; type: toxicity, organism-based, Sprague-Dawley; design: regimen Daily Repeat, gender Male, age 6-8 weeks; details: in vivo, po, 0 mg/kg, 120 h, tissue Blood, route oral GAVAGE, dose level Control, time 5 day, vehicle 100 % WATER
# reported NUCLEATED RED BLOOD CELLS; entries follow

COMPOUND	NUCLEATED RED BLOOD CELLS
NC(=O)c1ncn([C@@H]2O[C@H](CO)[C@@H](O)[C@H]2O)n1	0.17 /100WBC
CC1COc2c(N3CCN(C)CC3)c(F)cc3c(=O)c(C(=O)O)cn1c23 (stereo not drawn)	0.17 /100WBC
O=C1NC(=O)C(c2ccccc2)(c2ccccc2)N1	0 /100WBC
Clc1ccc(C(c2ccccc2Cl)C(Cl)Cl)cc1 (stereo not drawn)	0 /100WBC
Nc1ccc(S(=O)(=O)Nc2ccnn2-c2ccccc2)cc1	0.17 /100WBC

State the recorded NUCLEATED RED BLOOD CELLS for this entry: Cn1cnc([N+](=O)[O-])c1Sc1ncnc2nc[nH]c12
0 /100WBC

Can you look up the measured NUCLEATED RED BLOOD CELLS of Cc1cc(NS(=O)(=O)c2ccc(N)cc2)no1 for me?
0 /100WBC

Consider the compound Fc1ccc([C@@H]2CCNC[C@H]2COc2ccc3c(c2)OCO3)cc1 and give its measured NUCLEATED RED BLOOD CELLS.
0 /100WBC

* * *

species: Rattus norvegicus; assay: DrugMatrix - Regimen: Daily Repeat; format: toxicity, organism-based, Sprague-Dawley; set-up: regimen Daily Repeat, gender Male, age 6-8 weeks; conditions: in vivo, po, 0 mg/kg, 72 h, tissue Blood, route oral GAVAGE, dose level Control, time 3 day, vehicle .5 % CMC
Collected MEAN CORPUSCULAR VOLUME values appear next to each entry.
State the answer as a number, implicitly in fL.

Here is how some molecules turned out for MEAN CORPUSCULAR VOLUME.
MOLECULE	MEAN CORPUSCULAR VOLUME [fL]
CC1(C)[C@H]2CC[C@]1(C)C(=O)C2 [(-)-CAMPHOR]	63.47
O=C1CCc2cc(OCCCCc3nnnn3C3CCCCC3)ccc2N1	63.66
Brc1ccccc1	62.82

Which MEAN CORPUSCULAR VOLUME is reported for this molecule? O=c1[nH]cc(F)c(=O)[nH]1
64.33

// returns reported MEAN CORPUSCULAR VOLUME for input C[C@]12CCC(=O)C=C1CC[C@@H]1[C@@H]2C(=O)C[C@@]2(C)[C@H]1CC[C@]2(O)C(=O)CO
64.22

Could you tell me which MEAN CORPUSCULAR VOLUME is on file for COc1c(C)c2c(c(O)c1C/C=C(\C)CCC(=O)OCCN1CCOCC1)C(=O)OC2 [MYCOPHENOLATE MOFETIL] ?
64.42

Item under review: CCC[C@@H]1C[C@@H](C(=O)N[C@@H]([C@H]2O[C@H](SC)[C@H](O)[C@@H](O)[C@H]2O)[C@@H](C)O)N(C)C1 . Reported MEAN CORPUSCULAR VOLUME?
63.52

Could you tell me which MEAN CORPUSCULAR VOLUME is on file for Cc1c(-c2ccccc2)oc2c(C(=O)OCCN3CCCCC3)cccc2c1=O [FLAVOXATE] ?
63.05

Look at this molecule and give its reported MEAN CORPUSCULAR VOLUME. NCC(=O)O
59.45
